Recorded values, source ChEMBL document CHEMBL1157539.

Tested on: Plasmodium falciparum
Test: GSK_TCMDC: Inhibition of Plasmodium falciparum Dd2 in whole red blood cells, using parasite LDH activity as an index of growth. Test compounds present at 2uM
Format: functional
Please use t whenever Inhibition is not below 70%, and f whenever it is.

Completed entries (count: 4):
CCCCN(C)CC#Cc1ccc2[nH]c(C)c(Cl)c(=O)c2c1: t
CN(C(=O)C(C)(C)Oc1ccc(Cl)cc1)C1CCN(CCCCCNC(=O)/C=C/c2ccc(Cl)c(Cl)c2)CC1: f
O=C(Nc1ccc(S(=O)(=O)N2CCCCC2)cc1)c1cc(-c2ccccc2O)n[nH]1: t
OC1CCC(Nc2ccc3ncc(-c4ccc(Cl)cc4)n3n2)CC1 (stereo not given): t

Query: // inclusive: Inhibition at least 70%? input: COc1cc(CNCCCNc2nc3ncccc3[nH]2)c2[nH]cc(Br)c2c1
Result: f

Query: Threshold query (Inhibition >= 70%) on C#CCNCc1ccc(-c2cccc(-c3nc4cccc(C)c4[nH]3)c2)cc1.O=C(O)C(F)(F)F
Result: f

Query: Quick check, Inhibition >= 70%? CCN(CC)CCOc1ccc(C(O)(C#CC(O)(c2ccccc2)c2ccc(OCCN(CC)CC)cc2)c2ccccc2)cc1 (stereo not given)
Result: t

Query: Given the entry CCc1ccc2c(c1O)CCN(C)C2Cc1ccccc1Cl.Cl (stereo not given) , answer whether its Inhibition meets or surpasses 70%.
Result: t
